Molecular target: T1, mouse programmed cell death protein 1 Fc fusion protein (mPD-1-Fc), mPD-1 C60S (aa 25-167) (Mus musculus, UniProt Q02242, stabilised)
T1 construct: not cleaved; source: Expi293F, purified (Protein A, SEC; dimeric fraction); not shown: Fc (human), C-terminal, kept
Test: SPR; Carterra LSA; Fab from the ammonium sulfate precipitate of the culture supernatant immobilised on a NiHC200M chip; hPD-1 (1-1024 nM) or mPD-1-Fc (4-1024 nM) as analyte, fourfold dilution series, no regeneration; HBS-EP pH 7.4, 25 °C; medians over the spots of a construct, KD = koff/kon
Conditions: one partner purified
# note: boundary value 80 nM maps to False; Kd below it maps to True

For orientation, consider the following solved cases.
binder | label
toripalimab Fab L.P100Q (Fab, V domains shown, as the heavy chain of Sm3; light chain of Sm3 with this change; numbers count from the chain's first residue; source: Brevibacillus, culture supernatant (ammonium sulfate precipitate); not shown: 6xHis, C-terminal, kept; 6xHN, C-terminal, kept) VH: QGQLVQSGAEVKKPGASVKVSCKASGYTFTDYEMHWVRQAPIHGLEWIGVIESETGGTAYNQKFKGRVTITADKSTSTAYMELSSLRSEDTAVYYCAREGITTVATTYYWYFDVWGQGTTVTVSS VL: DVVMTQSPLSLPVTLGQPASISCRSSQSIVHSNGNTYLEWYLQKPGQSPQLLIYKVSNRFSGVPDRFSGSGSGTDFTLKISRVEAEDVGVYYCFQGSHVQLTFGQGTKLEIK | True
toripalimab Fab H.T106Y (Fab, V domains shown, heavy chain of Sm3 with this change; numbers count from the chain's first residue; as the light chain of Sm3; source: Brevibacillus, culture supernatant (ammonium sulfate precipitate); not shown: 6xHis, C-terminal, kept; 6xHN, C-terminal, kept) VH: QGQLVQSGAEVKKPGASVKVSCKASGYTFTDYEMHWVRQAPIHGLEWIGVIESETGGTAYNQKFKGRVTITADKSTSTAYMELSSLRSEDTAVYYCAREGITTVAYTYYWYFDVWGQGTTVTVSS VL: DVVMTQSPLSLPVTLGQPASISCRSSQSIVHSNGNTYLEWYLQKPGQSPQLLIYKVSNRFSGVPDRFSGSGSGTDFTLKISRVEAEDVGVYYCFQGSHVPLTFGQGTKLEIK | False
toripalimab Fab H.N61Y (Fab, V domains shown, heavy chain of Sm3 with this change; numbers count from the chain's first residue; as the light chain of Sm3; source: Brevibacillus, culture supernatant (ammonium sulfate precipitate); not shown: 6xHis, C-terminal, kept; 6xHN, C-terminal, kept) VH: QGQLVQSGAEVKKPGASVKVSCKASGYTFTDYEMHWVRQAPIHGLEWIGVIESETGGTAYYQKFKGRVTITADKSTSTAYMELSSLRSEDTAVYYCAREGITTVATTYYWYFDVWGQGTTVTVSS VL: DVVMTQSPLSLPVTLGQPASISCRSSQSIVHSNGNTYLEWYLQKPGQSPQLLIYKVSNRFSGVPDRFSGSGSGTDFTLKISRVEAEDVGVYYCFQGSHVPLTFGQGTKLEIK | False
toripalimab Fab L.V99G (Fab, V domains shown, as the heavy chain of Sm3; light chain of Sm3 with this change; numbers count from the chain's first residue; source: Brevibacillus, culture supernatant (ammonium sulfate precipitate); not shown: 6xHis, C-terminal, kept; 6xHN, C-terminal, kept) VH: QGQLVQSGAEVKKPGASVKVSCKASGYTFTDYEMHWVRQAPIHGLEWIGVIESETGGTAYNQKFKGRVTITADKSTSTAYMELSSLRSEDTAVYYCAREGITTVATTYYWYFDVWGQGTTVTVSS VL: DVVMTQSPLSLPVTLGQPASISCRSSQSIVHSNGNTYLEWYLQKPGQSPQLLIYKVSNRFSGVPDRFSGSGSGTDFTLKISRVEAEDVGVYYCFQGSHGPLTFGQGTKLEIK | True
toripalimab Fab H.G66A (Fab, V domains shown, heavy chain of Sm3 with this change; numbers count from the chain's first residue; as the light chain of Sm3; source: Brevibacillus, culture supernatant (ammonium sulfate precipitate); not shown: 6xHis, C-terminal, kept; 6xHN, C-terminal, kept) VH: QGQLVQSGAEVKKPGASVKVSCKASGYTFTDYEMHWVRQAPIHGLEWIGVIESETGGTAYNQKFKARVTITADKSTSTAYMELSSLRSEDTAVYYCAREGITTVATTYYWYFDVWGQGTTVTVSS VL: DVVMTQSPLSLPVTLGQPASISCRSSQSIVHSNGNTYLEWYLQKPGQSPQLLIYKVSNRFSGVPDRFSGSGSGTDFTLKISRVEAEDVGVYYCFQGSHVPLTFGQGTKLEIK | False

Dear colleague, could you confirm whether Kd of toripalimab Fab L.T36Y (Fab, V domains shown, as the heavy chain of Sm3; light chain of Sm3 with this change; numbers count from the chain's first residue; source: Brevibacillus, culture supernatant (ammonium sulfate precipitate); not shown: 6xHis, C-terminal, kept; 6xHN, C-terminal, kept) VH: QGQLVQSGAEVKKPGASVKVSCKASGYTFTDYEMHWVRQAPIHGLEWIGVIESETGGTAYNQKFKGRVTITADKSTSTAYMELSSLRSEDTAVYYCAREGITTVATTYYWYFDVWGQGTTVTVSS VL: DVVMTQSPLSLPVTLGQPASISCRSSQSIVHSNGNYYLEWYLQKPGQSPQLLIYKVSNRFSGVPDRFSGSGSGTDFTLKISRVEAEDVGVYYCFQGSHVPLTFGQGTKLEIK falls below 80 nM? Thanks.
False

Dear colleague, could you confirm whether Kd of toripalimab Fab L.V99D (Fab, V domains shown, as the heavy chain of Sm3; light chain of Sm3 with this change; numbers count from the chain's first residue; source: Brevibacillus, culture supernatant (ammonium sulfate precipitate); not shown: 6xHis, C-terminal, kept; 6xHN, C-terminal, kept) VH: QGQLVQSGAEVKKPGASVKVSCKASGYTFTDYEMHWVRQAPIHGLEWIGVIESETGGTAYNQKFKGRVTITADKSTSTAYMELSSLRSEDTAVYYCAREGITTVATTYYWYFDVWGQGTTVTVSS VL: DVVMTQSPLSLPVTLGQPASISCRSSQSIVHSNGNTYLEWYLQKPGQSPQLLIYKVSNRFSGVPDRFSGSGSGTDFTLKISRVEAEDVGVYYCFQGSHDPLTFGQGTKLEIK falls below 80 nM? Thanks.
True

Dear colleague, could you confirm whether Kd of toripalimab Fab L.N58A (Fab, V domains shown, as the heavy chain of Sm3; light chain of Sm3 with this change; numbers count from the chain's first residue; source: Brevibacillus, culture supernatant (ammonium sulfate precipitate); not shown: 6xHis, C-terminal, kept; 6xHN, C-terminal, kept) VH: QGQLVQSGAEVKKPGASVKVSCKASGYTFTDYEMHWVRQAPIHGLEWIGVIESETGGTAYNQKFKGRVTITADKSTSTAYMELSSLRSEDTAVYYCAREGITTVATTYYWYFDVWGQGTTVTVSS VL: DVVMTQSPLSLPVTLGQPASISCRSSQSIVHSNGNTYLEWYLQKPGQSPQLLIYKVSARFSGVPDRFSGSGSGTDFTLKISRVEAEDVGVYYCFQGSHVPLTFGQGTKLEIK falls below 80 nM? Thanks.
False
